Data origin, for the record: paper PMC8091583

- assay.system: AD-HAB1 (169-511) (Arabidopsis thaliana) (UniProt Q9CAJ0)
- Sequence (Q9CAJ0 whole entry): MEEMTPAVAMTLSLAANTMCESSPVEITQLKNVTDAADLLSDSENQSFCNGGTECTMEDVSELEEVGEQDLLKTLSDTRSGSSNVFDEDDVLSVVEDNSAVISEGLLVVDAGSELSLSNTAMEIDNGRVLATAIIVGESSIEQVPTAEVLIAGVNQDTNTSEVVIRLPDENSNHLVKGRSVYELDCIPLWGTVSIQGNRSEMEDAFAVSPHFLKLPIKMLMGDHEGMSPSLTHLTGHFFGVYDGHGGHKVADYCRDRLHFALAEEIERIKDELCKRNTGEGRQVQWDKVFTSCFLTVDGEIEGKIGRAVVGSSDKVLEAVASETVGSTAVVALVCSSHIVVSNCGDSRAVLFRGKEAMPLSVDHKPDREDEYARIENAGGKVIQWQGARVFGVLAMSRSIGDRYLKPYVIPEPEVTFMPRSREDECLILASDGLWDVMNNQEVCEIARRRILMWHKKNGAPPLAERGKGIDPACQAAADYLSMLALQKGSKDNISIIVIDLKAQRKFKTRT
Please respond with reported inhibition of HAB1 (0.5 μM) phosphatase activity by 1 μM PYL3 mutant, without ABA for every item in the list.
The number alone won't do; follow it with the unit.

Worked cases, inhibition of HAB1 (0.5 μM) phosphatase activity by 1 μM PYL3 mutant, without ABA given:
* PYL3 V108K V107L V192L L111F (receptor) MNLAPIHDPSSSSTTTTSSSTPYGLTKDEFSTLDSIIRTHHTFPRSPNTCTSLIAHRVDAPAHAIWRFVRDFANPNKYKHFIKSCTIRVNGNGIKEIKVGTIREVSLKSGFPASTSVEILEVLDEEKRILSFRVLGGEHRLNNYRSVTSVNEFVVLEKDKKKRVYSVVLESYIVDIPQGNTEEDTRMFVDTLVKSNLQNLAVISTASPT | 85%
* PYL3 V108K V107F (receptor) MNLAPIHDPSSSSTTTTSSSTPYGLTKDEFSTLDSIIRTHHTFPRSPNTCTSLIAHRVDAPAHAIWRFVRDFANPNKYKHFIKSCTIRVNGNGIKEIKVGTIREVSFKSGLPASTSVEILEVLDEEKRILSFRVLGGEHRLNNYRSVTSVNEFVVLEKDKKKRVYSVVLESYIVDIPQGNTEEDTRMFVDTVVKSNLQNLAVISTASPT | 65%
* PYL3 V108K V107L V192L (receptor) MNLAPIHDPSSSSTTTTSSSTPYGLTKDEFSTLDSIIRTHHTFPRSPNTCTSLIAHRVDAPAHAIWRFVRDFANPNKYKHFIKSCTIRVNGNGIKEIKVGTIREVSLKSGLPASTSVEILEVLDEEKRILSFRVLGGEHRLNNYRSVTSVNEFVVLEKDKKKRVYSVVLESYIVDIPQGNTEEDTRMFVDTLVKSNLQNLAVISTASPT | 50%
* BD-PYL3 V108K V107L V192F (receptor) MNLAPIHDPSSSSTTTTSSSTPYGLTKDEFSTLDSIIRTHHTFPRSPNTCTSLIAHRVDAPAHAIWRFVRDFANPNKYKHFIKSCTIRVNGNGIKEIKVGTIREVSLKSGLPASTSVEILEVLDEEKRILSFRVLGGEHRLNNYRSVTSVNEFVVLEKDKKKRVYSVVLESYIVDIPQGNTEEDTRMFVDTFVKSNLQNLAVISTASPT | 87.5%
* BD-PYL3 V108K V107F V192F L111F (receptor) MNLAPIHDPSSSSTTTTSSSTPYGLTKDEFSTLDSIIRTHHTFPRSPNTCTSLIAHRVDAPAHAIWRFVRDFANPNKYKHFIKSCTIRVNGNGIKEIKVGTIREVSFKSGFPASTSVEILEVLDEEKRILSFRVLGGEHRLNNYRSVTSVNEFVVLEKDKKKRVYSVVLESYIVDIPQGNTEEDTRMFVDTFVKSNLQNLAVISTASPT | 98%

Now look at this entry.
Look at this binder and give its reported inhibition of HAB1 (0.5 μM) phosphatase activity by 1 μM PYL3 mutant, without ABA. BD-PYL3 V108K V107L V192F L111F (receptor) MNLAPIHDPSSSSTTTTSSSTPYGLTKDEFSTLDSIIRTHHTFPRSPNTCTSLIAHRVDAPAHAIWRFVRDFANPNKYKHFIKSCTIRVNGNGIKEIKVGTIREVSLKSGFPASTSVEILEVLDEEKRILSFRVLGGEHRLNNYRSVTSVNEFVVLEKDKKKRVYSVVLESYIVDIPQGNTEEDTRMFVDTFVKSNLQNLAVISTASPT 92.5%
